Tested on: Yap1 mRNA
Test: Antisense inhibition of human Yap1 in A-431 cells by cEt gapmers, single dose (Example 3, RTS36584)
Format: cell-based
Conditions: Table 26; Yap1 mRNA by 3-10-3 cEt gapmers targeting SEQ ID NO.: 1, and 2; percent of untreated control
Strand notation (5' to 3'): a small letter for the sugar, then the base; units joined by * are phosphorothioate-linked, units joined directly phosphodiester-linked; [ ] holds rarer units or linkages, { } end groups; capitals alone tell only the bases. k = constrained ethyl (cEt); [5mC] = 5-methylcytosine; d = 2'-deoxy (DNA)
measurement_type: YAP1 (% UTC)
Report as a plain number; the unit % UTC is understood.

Use these answered entries as a reference point.
| substance | YAP1 (% UTC) |
| --- | --- |
| 1075372 (antisense kA*kT*kA*dT*dA*dT*dA*dG*dA*d[5mC]*dT*dT*dG*kA*kG*kA) [compound 1075372] | 27 |
| 1075180 (kT*kA*kT*dT*dA*d[5mC]*dT*dA*d[5mC]*dA*dA*d[5mC]*d[5mC]*kA*kT*kA; antisense) [compound 1075180] | 56 |
| 1075596 (antisense kA*kT*kA*dT*dA*dA*dT*dA*d[5mC]*dA*dT*d[5mC]*dT*k[5mC]*k[5mC]*k[5mC]) [compound 1075596] | 91 |
| 1074156 (kA*kG*kG*dG*d[5mC]*dT*dA*d[5mC]*dG*d[5mC]*d[5mC]*d[5mC]*dG*kG*kA*k[5mC]; antisense) [compound 1074156] | 96 |
| 1075116 (k[5mC]*kT*kT*dA*dA*d[5mC]*dA*dT*dT*dT*dA*dA*dT*kG*kG*k[5mC]; antisense) [compound 1075116] | 15 |

Now consider a different substance.
Task: Would you kindly share the measured YAP1 (% UTC) for 1074316 (antisense kG*kG*kA*dT*dT*dG*dA*dT*dA*dT*dT*d[5mC]*d[5mC]*kG*k[5mC]*kA) [compound 1074316] ?
Output: 33

====

pIC50 reference
Tested on: Yap1 mRNA
Assay: Dose-dependent inhibition of human Yap1 in A-431 cells (Example 7, 10,000 cells per well, RTS36584)
Format: cell-based
Details: Table 59, A-431 cells 10,000 cells per well, free uptake
Strand notation (5' to 3'): a small letter for the sugar, then the base; units joined by * are phosphorothioate-linked, units joined directly phosphodiester-linked; [ ] holds rarer units or linkages, { } end groups; capitals alone tell only the bases. k = constrained ethyl (cEt); [5mC] = 5-methylcytosine; d = 2'-deoxy (DNA)
Recall that pIC50 is obtained by taking minus log10 of the concentration measured in molar.

Use these answered entries as a reference point.
| substance | endpoint_value |
| --- | --- |
| 958737 (kG*kG*kA*dA*dT*dA*d[5mC]*dA*dA*dG*d[5mC]*d[5mC]*d[5mC]*kG*kA*kG; antisense) [compound 958737] | 6.40 |
| 958798 (kT*kG*k[5mC]*dA*dG*dT*dA*dT*dA*dA*dT*dA*dT*k[5mC]*k[5mC]*kT; antisense) [compound 958798] | 7.00 |
| 958507 (kG*kA*kG*d[5mC]*dA*dG*dA*dT*dA*dA*dT*d[5mC]*dG*kA*kG*kA; antisense) [compound 958507] | 6.70 |
| 715483 (k[5mC]*kT*k[5mC]*dT*dT*dT*dG*dG*dA*dA*dA*d[5mC]*d[5mC]*kA*kT*kT) [compound 715483] | 7.00 |
| 958562 (k[5mC]*kA*kT*dT*dG*dA*dA*dA*dG*dA*d[5mC]*d[5mC]*d[5mC]*kT*kT*kA; antisense) [compound 958562] | 6.40 |

Now consider a different substance.
Task: Would you kindly share the measured pIC50 for 958668 (kG*kT*kG*dA*dT*d[5mC]*dT*dG*dT*dG*dA*dG*dA*kG*kG*kT; antisense) [compound 958668] ?
Output: 7.00

====

Yap1 mRNA, % UTC reference
Test system: Yap1 mRNA
Assay: Dose-dependent inhibition of human Yap1 in A-431 cells (Example 7, 10,000 cells per well, RTS36584)
Type: cell-based
Settings: Table 56, 15.6 nM, free uptake, A-431 cells 10,000 cells per well, 48 hours
Strand notation (5' to 3'): a small letter for the sugar, then the base; units joined by * are phosphorothioate-linked, units joined directly phosphodiester-linked; [ ] holds rarer units or linkages, { } end groups; capitals alone tell only the bases. k = constrained ethyl (cEt); [5mC] = 5-methylcytosine; d = 2'-deoxy (DNA)
Report as a plain number; the unit % UTC is understood.

Use these answered entries as a reference point.
| substance | scale_unit | Yap1 mRNA, % UTC |
| --- | --- | --- |
| 958375 (antisense kA*kA*kA*dG*d[5mC]*d[5mC]*dT*dT*dA*dG*dA*dG*dT*k[5mC]*kA*kA) [compound 958375] | % UTC | 74 |
| 958596 (kA*kG*k[5mC]*dA*dG*dT*dT*dA*dA*dG*d[5mC]*dA*d[5mC]*kT*kT*kT; antisense) [compound 958596] | % UTC | 69 |
| 715483 (k[5mC]*kT*k[5mC]*dT*dT*dT*dG*dG*dA*dA*dA*d[5mC]*d[5mC]*kA*kT*kT) [compound 715483] | % UTC | 78 |
| 958476 (kT*kT*k[5mC]*d[5mC]*dG*dG*dT*dG*d[5mC]*dA*dT*dG*dT*kG*kT*k[5mC]; antisense) [compound 958476] | % UTC | 71 |
| 958796 (kA*kT*kT*dA*dT*dA*dT*dG*dG*dT*dT*dG*d[5mC]*kT*kT*k[5mC]; antisense) [compound 958796] | % UTC | 91 |

Now consider a different substance.
Task: Would you kindly share the measured Yap1 mRNA, % UTC for 958356 (antisense kT*kT*kG*dA*dA*dG*dA*dA*dG*dG*dA*dG*dT*k[5mC]*kG*kG) [compound 958356] ?
Output: 84

====

Test system: Yap1 mRNA
Assay: Dose-dependent inhibition of human Yap1 in A-431 cells (Example 8, 10,000 cells per well, RTS4814)
Assay type: cell-based
Details: 500.0 nM; A-431 cells
Protocol: Modified oligonucleotides described in the studies above were tested at various doses in A-431 cells. […] After approximately 48 hours, Yap1 mRNA levels were measured as previously described using the Human Yap1 primer-probe set RTS4814. Yap1 mRNA levels were normalized to total RNA content, as measured by RIBOGREEN®. […] IC50s were calculated using a linear regression on a log/linear plot of the data in excel.
Strand notation (5' to 3'): a small letter for the sugar, then the base; units joined by * are phosphorothioate-linked, units joined directly phosphodiester-linked; [ ] holds rarer units or linkages, { } end groups; capitals alone tell only the bases. k = constrained ethyl (cEt); [5mC] = 5-methylcytosine; d = 2'-deoxy (DNA)
measurement_type: % UTC (Yap1 mRNA) (% UTC)
Report as a plain number; the unit % UTC is understood.

Use these answered entries as a reference point.
| substance | scale_unit | % UTC (Yap1 mRNA) |
| --- | --- | --- |
| 1076471 (k[5mC]*kA*kT*dT*dA*dG*dA*d[5mC]*dT*dA*dG*dG*d[5mC]*kT*kT*kT; antisense) [compound 1076471] | % UTC | 9 |
| 1076439 (k[5mC]*kT*kT*dA*dT*dA*dT*dG*dG*dT*dT*dT*dT*kG*kT*kG) [compound 1076439] | % UTC | 6 |
| 1076534 (kA*k[5mC]*kT*dA*dT*dA*dA*dA*dG*d[5mC]*dA*dA*dT*kG*k[5mC]*kG; antisense) [compound 1076534] | % UTC | 20 |
| 1074548 (kA*kT*k[5mC]*dT*dA*d[5mC]*d[5mC]*dG*dT*dA*dT*dG*d[5mC]*k[5mC]*k[5mC]*kA; antisense) [compound 1074548] | % UTC | 7 |
| 1074452 (kT*kG*kA*d[5mC]*dT*dA*dA*dT*dG*dA*dT*dA*dG*k[5mC]*kA*k[5mC]; antisense) [compound 1074452] | % UTC | 9 |

Task: Would you kindly share the measured % UTC (Yap1 mRNA) for 1075893 (antisense k[5mC]*kG*kT*dG*dA*dA*dA*dA*dA*dG*dA*dT*dG*kT*kG*kG) [compound 1075893] ?
Output: 11

Task: Another: 1076340 (antisense kT*kA*kA*dT*dA*dT*d[5mC]*d[5mC]*dT*d[5mC]*dA*dT*d[5mC]*kA*kG*k[5mC]) [compound 1076340]
Output: 17

====

BUN reference
Test: Tolerability in Sprague-Dawley rats, plasma chemistry markers (Example 21)
Assay type: in vivo
Details: male Sprague-Dawley rats, 50 mg/kg s.c. weekly for 6 weeks (7 doses), 48 hours after last dose
Strand notation (5' to 3'): a small letter for the sugar, then the base; units joined by * are phosphorothioate-linked, units joined directly phosphodiester-linked; [ ] holds rarer units or linkages, { } end groups; capitals alone tell only the bases. e = 2'-O-(2-methoxyethyl) (MOE); k = constrained ethyl (cEt); [5mC] = 5-methylcytosine; d = 2'-deoxy (DNA); m = 2'-O-methyl
Report as a plain number; the unit mg/dL is understood.

Task: Would you kindly share the measured BUN for 1198874 (kA*kA*dG*dT*dG*dT*dA*dT*dG*dT*d[5mC]*kA*eG*kA*eA*kG) [compound 1198874] ?
Output: 22

Task: Another: 1198615 (kT*kT*kA*dA*dA*dG*dT*dG*dT*dA*dT*dG*kT*k[5mC]*kA*eG) [compound 1198615]
Output: 21

Task: Another: 1198312 (kG*k[5mC]*kA*d[5mC]*dT*dT*dT*dT*dA*d[5mC]*dA*dT*kT*eA*kG*eG) [compound 1198312]
Output: 25

Task: Another: 1198612 (kA*kA*kG*dT*dG*dT*dA*dT*dG*dT*d[5mC]*dA*kG*kA*kA*eG) [compound 1198612]
Output: 31

Task: Another: 1200857 (kA*kG*kT*dG*dT*mA*dT*dG*dT*d[5mC]*dA*dG*dA*kA*kG*kA; antisense) [compound 1200857]
Output: 56
